Assay: in vivo
Details: mouse, po, 40 mg/kg
measurementType: AUC (µg·h/mL)

chemicalSmiles	measuredValue
O=[N+]([O-])c1cn2c(n1)OC[C@@H](OCc1ccc(-c3ccc(C(F)(F)F)cn3)cc1)C2	67.3
O=[N+]([O-])c1cn2c(n1)OC[C@@H](OCc1ccc(-c3ccc(OC(F)(F)F)cc3)cc1)C2	218
O=C(O[C@@H]1COc2nc([N+](=O)[O-])cn2C1)N1CCN(c2ccc(OC(F)(F)F)cc2)CC1	169
O=[N+]([O-])c1cn2c(n1)OC[C@@H](OCc1ccc(-c3ccc(OC(F)(F)F)c(F)c3)nc1)C2	251
O=[N+]([O-])c1cn2c(n1)OC[C@@H](OCc1ccc(-c3ccc(OC(F)(F)F)c(Cl)c3)nc1)C2	284
O=[N+]([O-])c1cn2c(n1)OC[C@@H](OCc1ccc(-c3ccc(OC(F)(F)F)cc3)nc1)C2	81
O=[N+]([O-])c1cn2c(n1)OC[C@@H](OCc1ccc(-c3ccc(C(F)(F)F)nc3)cc1)C2	414

---

Conditions: CD-1 mice, oral, 40 mg/kg, suspension in 0.5% carboxymethylcellulose/0.08% Tween 80
Measured t½ (h) plasma, listed per entry.

chemicalSmiles	valueUnit	t½ (h) plasma
O=[N+]([O-])c1cn2c(n1)OC[C@@H](OCC#Cc1ccc(-c3ccc(OC(F)(F)F)cc3)cc1)C2	h	7.5
O=[N+]([O-])c1cn2c(n1)OC[C@@H](OCc1ccc(-c3ccc(OC(F)(F)F)cc3)nc1)C2	h	24
O=[N+]([O-])c1cn2c(n1)OC[C@@H](OCc1ccc(-c3ccc(F)cc3)nc1)C2	h	2.7
O=[N+]([O-])c1cn2c(n1)OC[C@@H](OCc1ccc(-c3ccc(OC(F)(F)F)c(F)c3)cn1)C2	h	8.4
O=[N+]([O-])c1cn2c(n1)OC[C@@H](OCc1ccc(-c3ccc(OC(F)(F)F)cc3)nn1)C2	h	2.9
O=[N+]([O-])c1cn2c(n1)OC[C@@H](OCc1ccc(-c3ccc(C(F)(F)F)cn3)cc1)C2	h	8.8
O=[N+]([O-])c1cn2c(n1)OC[C@@H](OCc1ccc(-c3ccc(OC(F)(F)F)cc3)cn1)C2	h	5.4
O=[N+]([O-])c1cn2c(n1)OC[C@@H](OCc1cnc(-c3ccc(OC(F)(F)F)cc3)cn1)C2	h	7.2
O=C(O[C@@H]1COc2nc([N+](=O)[O-])cn2C1)N1CCN(c2ccc(OC(F)(F)F)cc2)CC1	h	10.5

---

Test: Stability to mouse liver microsomes
Assay type: in vitro ADME, CD-1 mouse
Details: pH 7.4, 37 °C, 0.5 mg/mL protein, NADPH regenerating system, 60 min
Measured remaining at 1 h, 1 µM, listed per entry.

chemicalSmiles	valueUnit	remaining at 1 h, 1 µM
O=[N+]([O-])c1cn2c(n1)OC[C@@H](OCc1ccc(Cc3ccc(OC(F)(F)F)cc3)cc1)C2	%	70
O=[N+]([O-])c1cn2c(n1)OC[C@@H](OCc1ccn(-c3ccc(OC(F)(F)F)cc3)n1)C2	%	67
O=[N+]([O-])c1cn2c(n1)OC[C@@H](OCc1ccc(C#Cc3ccc(C(F)(F)F)nc3)cn1)C2	%	91
O=[N+]([O-])c1cn2c(n1)OC[C@@H](OCc1ccc(/C=C/c3ccc(OC(F)(F)F)cc3)cc1)C2	%	98

---

Experiment: in vivo
Settings: mouse, po, 40 mg/kg
measurementType: Kp

chemicalSmiles	measurementType	measuredValue
O=[N+]([O-])c1cn2c(n1)OC[C@@H](OCc1ccc(-c3ccc(OC(F)(F)F)c(F)c3)cc1)C2	Kp	> 1

---

Test system: M. tuberculosis bacteria in the non-replicating state
Test: microbe, parasite or virus in culture
Type: cell-based
Details: Mycobacterium tuberculosis, 264 h, low oxygen, 11 day, read-out: MIC LORA (anaerobic)
Measured MIC, listed per entry.
measurementType: MIC (µM)

compound	targetOrSystem	measuredValue
O=[N+]([O-])c1cn2c(n1)OC[C@@H](Oc1ccc(-c3ccc(OC(F)(F)F)cc3)cc1)C2 [compound 13]	M. tuberculosis bacteria in the non-replicating state	1.3
O=[N+]([O-])c1cn2c(n1)OC[C@@H](OCc1ccc(-c3ccc(OC(F)(F)F)cc3)nn1)C2 [compound 24]	M. tuberculosis bacteria in the non-replicating state	1.7
O=[N+]([O-])c1cn2c(n1)OC[C@@H](OCc1ccc(-c3ccc(OC(F)(F)F)c(Cl)c3)nc1)C2 [compound 28]	M. tuberculosis bacteria in the non-replicating state	1
O=[N+]([O-])c1cn2c(n1)OC[C@@H](OCc1cnc(-c3ccc(OC(F)(F)F)cc3)nc1)C2 [compound 16]	M. tuberculosis bacteria in the non-replicating state	1.8
O=[N+]([O-])c1cn2c(n1)OC[C@@H](OCc1ccc(-c3ccc(OC(F)(F)F)cc3)cc1F)C2 [compound 12]	M. tuberculosis bacteria in the non-replicating state	1.2

---

Measured AUC, listed per entry.
Test: in vivo
Details: mouse, po, 40 mg/kg

chemicalSmiles	boundOperator	AUC / µg·h/mL
O=[N+]([O-])c1cn2c(n1)OC[C@@H](OCc1ccc(-c3ccc(OC(F)(F)F)cc3Cl)cc1)C2	=	3360
O=[N+]([O-])c1cn2c(n1)OC[C@@H](OCc1ccc(-c3ccc(OC(F)(F)F)c(F)c3)cn1)C2	=	155
O=[N+]([O-])c1cn2c(n1)OC[C@@H](OCc1ccn(-c3ccc(OC(F)(F)F)cc3)n1)C2	=	31.5
O=[N+]([O-])c1cn2c(n1)OC[C@@H](OCc1ccc(-c3ccc(OC(F)(F)F)cc3)nn1)C2	=	93.9
O=[N+]([O-])c1cn2c(n1)OC[C@@H](OCc1ccc(-c3ccc(C(F)(F)F)cn3)cc1F)C2	=	148
O=[N+]([O-])c1cn2c(n1)OC[C@@H](OCc1ccc(-c3ccc(C(F)(F)F)nc3)cc1F)C2	=	55.4
O=[N+]([O-])c1cn2c(n1)OC[C@@H](OCc1ccc(-c3ccc(OC(F)(F)F)c(F)c3)cc1)C2	>	513
O=[N+]([O-])c1cn2c(n1)OC[C@@H](OCc1cnc(-c3ccc(OC(F)(F)F)cc3)cn1)C2	>	324
O=[N+]([O-])c1cn2c(n1)OC[C@@H](OCc1ccc(C#Cc3ccc(OC(F)(F)F)cc3)cn1)C2	=	235
O=[N+]([O-])c1cn2c(n1)OC[C@@H](OCc1ccc(-c3ccc(F)cc3)nc1)C2	=	136

---

Test: in vivo
Conditions: mouse, po, 40 mg/kg
Everything with AUC lower than 300 µg·h/mL is Not satisfied; everything else, including exactly 300 µg·h/mL, is Satisfied.

compound	group
O=[N+]([O-])c1cn2c(n1)OC[C@@H](OCc1ccc(-c3ccc(OC(F)(F)F)cc3)cn1)C2 [compound 7]	Satisfied
O=[N+]([O-])c1cn2c(n1)OC[C@@H](OCc1ccc(-c3ccc(OC(F)(F)F)cc3)cc1F)C2 [compound 12]	Satisfied
O=[N+]([O-])c1cn2c(n1)OC[C@@H](Oc1ccc(-c3ccc(OC(F)(F)F)cc3)cc1)C2 [compound 13]	Satisfied
O=[N+]([O-])c1cn2c(n1)OC[C@@H](OCC#Cc1ccc(-c3ccc(OC(F)(F)F)cc3)cc1)C2 [compound 30]	Not satisfied
Cn1nc(-c2ccc(OC(F)(F)F)cc2)cc1CO[C@@H]1COc2nc([N+](=O)[O-])cn2C1 [compound 11]	Not satisfied
O=[N+]([O-])c1cn2c(n1)OC[C@@H](OCc1cnc(-c3ccc(OC(F)(F)F)cc3)nc1)C2 [compound 16]	Not satisfied

---

Tested on: M. tuberculosis bacteria in the non-replicating state
Test: microbe, parasite or virus in culture
Type: cell-based
Details: Mycobacterium tuberculosis, 264 h, low oxygen, 11 day, read-out: MIC LORA (anaerobic)
Measured MIC, listed per entry.

compound	targetOrSystem	valueUnit	boundOperator	MIC
O=[N+]([O-])c1cn2c(n1)OC[C@@H](OCc1ccc(/C=C/c3ccc(OC(F)(F)F)cc3)cc1)C2 [compound 31]	M. tuberculosis bacteria in the non-replicating state	µM	=	27
O=[N+]([O-])c1cn2c(n1)OC[C@@H](OC/C=C/c1ccc(-c3ccc(OC(F)(F)F)cc3)cc1)C2 [compound 19]	M. tuberculosis bacteria in the non-replicating state	µM	>	64
O=[N+]([O-])c1cn2c(n1)OC[C@@H](OCc1cnn(-c3ccc(OC(F)(F)F)cc3)c1)C2 [compound 27]	M. tuberculosis bacteria in the non-replicating state	µM	=	1.8
O=[N+]([O-])c1cn2c(n1)OC[C@@H](OCc1ccc(-c3ccc(OC(F)(F)F)cc3)cc1)C2 [compound 3]	M. tuberculosis bacteria in the non-replicating state	µM	=	1.3
O=[N+]([O-])c1cn2c(n1)OC[C@@H](OCc1ccc(-c3ccc(OC(F)(F)F)cc3Cl)cc1)C2 [compound 1]	M. tuberculosis bacteria in the non-replicating state	µM	=	0.78
O=[N+]([O-])c1cn2c(n1)OC[C@@H](OCc1ccc(-c3ccc(OC(F)(F)F)c(F)c3)cc1)C2 [compound 2]	M. tuberculosis bacteria in the non-replicating state	µM	=	0.34
O=[N+]([O-])c1cn2c(n1)OC[C@@H](OCc1ccn(-c3ccc(OC(F)(F)F)cc3)n1)C2 [compound 10]	M. tuberculosis bacteria in the non-replicating state	µM	=	0.61
O=[N+]([O-])c1cn2c(n1)OC[C@@H](OCc1ncc(-c3ccc(OC(F)(F)F)cc3)cn1)C2 [compound 29]	M. tuberculosis bacteria in the non-replicating state	µM	=	1.9
O=[N+]([O-])c1cn2c(n1)OC[C@@H](OCc1ccc(C#Cc3ccc(OC(F)(F)F)cc3)cc1)C2 [compound 32]	M. tuberculosis bacteria in the non-replicating state	µM	>	128
O=[N+]([O-])c1cn2c(n1)OC[C@@H](OCc1ccc(-c3ccc(OC(F)(F)F)cc3)c(F)c1)C2 [compound 15]	M. tuberculosis bacteria in the non-replicating state	µM	=	0.51
O=[N+]([O-])c1cn2c(n1)OC[C@@H](OCC#Cc1ccc(-c3ccc(OC(F)(F)F)cc3)cc1)C2 [compound 30]	M. tuberculosis bacteria in the non-replicating state	µM	=	0.99
O=[N+]([O-])c1cn2c(n1)OC[C@@H](OCc1ccc(-c3ccc(F)cn3)cc1)C2 [compound 26]	M. tuberculosis bacteria in the non-replicating state	µM	=	1.3
O=[N+]([O-])c1cn2c(n1)OC[C@@H](OCc1ccc(C#Cc3ccc(OC(F)(F)F)cc3)cn1)C2 [compound 18]	M. tuberculosis bacteria in the non-replicating state	µM	=	1.4
O=[N+]([O-])c1cn2c(n1)OC[C@@H](OCc1cnc(-c3ccc(OC(F)(F)F)cc3)cn1)C2 [compound 4]	M. tuberculosis bacteria in the non-replicating state	µM	=	1
O=[N+]([O-])c1cn2c(n1)OC[C@@H](OCc1ccc(-c3ccc(OC(F)(F)F)c(F)c3)cn1)C2 [compound 22]	M. tuberculosis bacteria in the non-replicating state	µM	=	1.3
O=[N+]([O-])c1cn2c(n1)OC[C@@H](OCc1ccc(-c3ccc(OC(F)(F)F)cc3)nc1)C2 [compound 6]	M. tuberculosis bacteria in the non-replicating state	µM	=	0.54
O=[N+]([O-])c1cn2c(n1)OC[C@@H](OCc1ccc(C#Cc3ccc(OC(F)(F)F)cc3)nc1)C2 [compound 33]	M. tuberculosis bacteria in the non-replicating state	µM	=	0.94
O=[N+]([O-])c1cn2c(n1)OC[C@@H](OCc1ccc(-c3ccc(C(F)(F)F)cn3)cc1)C2 [compound 8]	M. tuberculosis bacteria in the non-replicating state	µM	=	1
O=C(O[C@@H]1COc2nc([N+](=O)[O-])cn2C1)N1CCN(c2ccc(OC(F)(F)F)cc2)CC1 [compound 20]	M. tuberculosis bacteria in the non-replicating state	µM	=	1.1
O=[N+]([O-])c1cn2c(n1)OC[C@@H](OCc1ccc(-c3ccc(OC(F)(F)F)c(F)c3)nc1)C2 [compound 21]	M. tuberculosis bacteria in the non-replicating state	µM	=	0.93
O=[N+]([O-])c1cn2c(n1)OC[C@@H](OCc1ccc(C#Cc3ccc(C(F)(F)F)nc3)cn1)C2 [compound 25]	M. tuberculosis bacteria in the non-replicating state	µM	=	0.74
O=[N+]([O-])c1cn2c(n1)OC[C@@H](OCc1ccc(-c3ccc(C(F)(F)F)cn3)cc1F)C2 [compound 14]	M. tuberculosis bacteria in the non-replicating state	µM	=	2.3
Cn1nc(-c2ccc(OC(F)(F)F)cc2)cc1CO[C@@H]1COc2nc([N+](=O)[O-])cn2C1 [compound 11]	M. tuberculosis bacteria in the non-replicating state	µM	=	0.58
O=[N+]([O-])c1cn2c(n1)OC[C@@H](OCc1ccc(Cc3ccc(OC(F)(F)F)cc3)cc1)C2 [compound 17]	M. tuberculosis bacteria in the non-replicating state	µM	=	1.1
O=[N+]([O-])c1cn2c(n1)OC[C@@H](OCc1ccc(OC(F)(F)F)cc1)C2 [PA-824, reference compound]	M. tuberculosis bacteria in the non-replicating state	µM	=	2.6
O=[N+]([O-])c1cn2c(n1)OC[C@@H](OCc1ccc(-c3ccc(OC(F)(F)F)cc3)cn1)C2 [compound 7]	M. tuberculosis bacteria in the non-replicating state	µM	=	3.7
O=[N+]([O-])c1cn2c(n1)OC[C@@H](OCc1ccc(-c3ccc(F)cc3)nc1)C2 [compound 5]	M. tuberculosis bacteria in the non-replicating state	µM	=	2.9
O=[N+]([O-])c1cn2c(n1)OC[C@@H](OCc1ccc(-c3ccc(C(F)(F)F)nc3)cc1)C2 [compound 9]	M. tuberculosis bacteria in the non-replicating state	µM	=	2.1
O=[N+]([O-])c1cn2c(n1)OC[C@@H](OCc1ccc(-c3ccc(C(F)(F)F)nc3)cc1F)C2 [compound 23]	M. tuberculosis bacteria in the non-replicating state	µM	=	0.68
